src = patent US7666446B2

experiment: Plasma netilmicin after intraduodenal netilmicin/PEP (HPLC); assay type: in vivo; conditions: male, Sprague-Dawley, rat, other: intraduodenal, rats, netilmicin/PEP 80 mg/kg netilmicin, 120 min
readout: concentration at 120 min (ng/mL)
Provide the reading as a plain figure in ng/mL.

Enquiry: State the recorded concentration at 120 min for this entry: CCN[C@@H]1C[C@H](N)[C@@H](O[C@H]2OC(CN)=CC[C@H]2N)[C@H](O)[C@H]1O[C@H]1OC[C@](C)(O)[C@H](NC)[C@H]1O
Return: 39300

====

Assay: Plasma isepamicin after intraduodenal isepamicin/PEP (HPLC)
Format: in vivo
Details: male, Sprague-Dawley, rat, other: intraduodenal, rats, isepamicin/PEP 75 mg/kg isepamicin, 180 min
Method: The abdominal muscle was sutured under the skin. […] Four rats were in each treatment group. […] Isepamicin solution was mixed with methylcellulose solution, and the resulting mixture was mixed with solutions of glucosamine and sucrose stearate 16 in water before administration to rats. […] Plasma was analyzed by HPLC, and bioavailability was calculated.
readout: concentration at 180 min (ng/mL)
Quick note: give the figure in ng/mL, leave out the unit.

Enquiry: Returns the measured concentration at 180 min for the input compound. Input: CN[C@@H]1[C@@H](O)[C@@H](O[C@@H]2[C@@H](O)[C@H](O[C@H]3O[C@H](CN)[C@@H](O)[C@H](O)[C@H]3O)[C@@H](N)C[C@H]2NC(=O)[C@@H](O)CN)OC[C@]1(C)O [Isepamicin]
Return: 49900
